TARGET OR SYSTEM: T1, TNFR1 (Homo sapiens, UniProt P19438)
T1 chain: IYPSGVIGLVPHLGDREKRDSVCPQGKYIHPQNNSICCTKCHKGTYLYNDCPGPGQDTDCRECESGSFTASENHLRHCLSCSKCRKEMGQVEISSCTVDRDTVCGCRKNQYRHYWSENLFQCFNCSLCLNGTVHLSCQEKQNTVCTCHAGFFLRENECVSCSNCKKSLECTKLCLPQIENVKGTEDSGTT
ASSAY INFO: yeast display SC50
REPORTED METRIC: apparent Kd (screen) (nM)
Please give a number only; it is taken to be in nM.

Past entries and their recorded results:
D53N (designed binder) SMEEEVEKAAKEYEKKKKEAIEKHLEKLKAKDKEAAERFLKELEEAAKEYAKNEAKTMSEEEAKRRAKKYKEKVLLSELSEEEQKEIKEAEEKLVRTILKYVEEAAK	0.79
K18V (designed binder) SMEEEVEKAAKEYEKKKVEAIEKHLEKLKAKDKEAAERFLKELEEAAKEYAKDEAKTMSEEEAKRRAKKYKEKVLLSELSEEEQKEIKEAEEKLVRTILKYVEEAAK	1.27
E104M (designed binder) SMEEEVEKAAKEYEKKKKEAIEKHLEKLKAKDKEAAERFLKELEEAAKEYAKDEAKTMSEEEAKRRAKKYKEKVLLSELSEEEQKEIKEAEEKLVRTILKYVEMAAK	0.869

API: the following record is the query input.
Return apparent Kd (screen) (reported value) for this binder: R65H (designed binder) SMEEEVEKAAKEYEKKKKEAIEKHLEKLKAKDKEAAERFLKELEEAAKEYAKDEAKTMSEEEAKHRAKKYKEKVLLSELSEEEQKEIKEAEEKLVRTILKYVEEAAK 1.54
